# credit: PubChem BioAssay (NCI)

- System: EKVX NSCLC
- assayText: NCI tumour cell line growth inhibition, 48 h; in the data active means GI50 below about 0.43 µM; inactive means the rest
Lab note: assign the record to one of active, inactive

Study these solved cases before continuing.
compound	class
C[C@H](NC(=O)c1c(C(F)F)nn(C)c1Oc1cccc(C(F)(F)F)c1)c1ccc(C(=O)O)cc1	inactive
O=C(Oc1ccccc1)C(Br)C(Br)c1ccccc1 (configuration not stated)	inactive
COc1ccc2nc3cccc([N+](=O)[O-])c3c(NCCNCCN(C)C)c2c1	inactive
CCC[CH2][Sn]([CH2]CCC)([CH2]CCC)[O]C(=O)C(OC)c1ccccc1 (configuration not stated)	active
O=C(CN(/C=C/C(=O)C(F)(F)F)c1ccccc1)c1ccc(Cl)cc1	inactive

# input Check the results log: what was the call for O=C([CH-]C(=O)c1ccccc1)c1ccccc1.O=C([CH-]C(=O)c1ccccc1)c1ccccc1.O=C([CH-]C(=O)c1ccccc1)c1ccccc1.[Cl-].[Zr+4] ?
# output inactive

# input Check the results log: what was the call for CCc1nc2cc(/C=C/C(=O)NO)ccc2c(=O)n1CCc1ccc(OC)cc1 ?
# output inactive

----------
- Tested on: M14 melanoma
- assayText: NCI tumour cell line growth inhibition, 48 h
endpointName: TGI

These recorded examples may help you get a feel for the data.
compound	endpointName	val
C=Cc1c(C)c2cc3[nH]c(cc4nc(cc5nc(cc1[nH]2)C(C)=C5CCC(=O)N(CC)CC)C(CCC(=O)N(CC)CC)=C4C)c(C)c3C=C	TGI	> 100 µM
COC(=O)CCC(=O)N1CC1C (centres undefined)	TGI	> 100 µM
CCN(CC)c1ccc(/C=N/NC(=O)CSc2nc3ccccc3c(=O)n2Cc2ccc(S(N)(=O)=O)cc2)c(O)c1	TGI	10.9 µM
COc1ccc2c(c1)CCc1c(CO)c(COC(=O)NC(C)C)n(C)c1-2	TGI	33.8 µM
CCCCCCCCCC(=O)NC(Cc1ccc(O)cc1)C(=O)NCCCNCCCCNCCCNC(=O)[C@@H](N)CCCN=C(N)N (some centres undefined)	TGI	> 100 µM

# input Supply reported TGI belonging to this compound: COC(=O)N/N=C(\C)C(CN(C)C)C(c1ccccc1)c1c(O)c2ccccc2oc1=O (centres undefined)
# output > 100 µM

# input Supply reported TGI belonging to this compound: C#C[C@]1(O)CC[C@H]2[C@@H]3CCC4=C/C(=N/OC(=O)c5cccc6c(=O)c7ccccc7[nH]c56)CCC4[C@H]3CC[C@@]21CC (some centres undefined)
# output > 100 µM

# input Supply reported TGI belonging to this compound: COc1ccc(-c2nc(N)c(C#N)c3c2CCOc2c-3ccc3ccccc23)cc1
# output > 100 µM

# input Supply reported TGI belonging to this compound: Cc1nc(Sc2nc3ccc([N+](=O)[O-])cc3s2)sc1C
# output 4.14 µM

----------
- Test system: HL-60(TB) leukemia
- assayText: NCI tumour cell line growth inhibition, 48 h
endpointName: TGI

# input Supply reported TGI belonging to this molecule: CCOC1CCN(C(=O)c2ccccc2)O1 (stereo not drawn)
# output > 10 µM

# input Supply reported TGI belonging to this molecule: CCOc1ccc(N=Cc2ccnc3ccccc23)cc1
# output 17 µM

# input Supply reported TGI belonging to this molecule: COc1cc2c(c(OC)c1OC)-c1ccc(SC)c(=O)cc1C(CC(=O)Oc1cccc(F)c1)C2 (stereo not drawn)
# output 0.6 µM

----------
- Tested on: HL-60(TB) leukemia
- assayText: NCI tumour cell line growth inhibition, 48 h; in the data active = GI50 below about 0.43 µM; inactive = the rest
Lab note: assign the record to one of active, inactive

molecule	class
O=C1Nc2ccccc2/C1=C/c1cn(CC(O)Cn2cc(/C=C3\C(=O)Nc4ccccc43)c3ccccc32)c2ccccc12 (centres undefined)	inactive
CCC[CH2][Sn]([CH2]CCC)([CH2]CCC)[O]C(=O)C(OC)c1ccccc1 (centres undefined)	active
CCc1nn2ncccc2c1-c1ccnc(NC2CC2)n1	inactive

Now let's try a different one.
# input Check the results log: what was the call for COc1ccc2c(c1)O/C(=C\c1cccc(OCC(=O)Nc3nc(C)c(C)s3)c1)C2=O ?
# output inactive

----------
- System: BT-549 breast
- assayText: NCI tumour cell line growth inhibition, 48 h
endpointName: TGI

compound	TGI
CC1(C)OC2OC(COC(=O)c3ccc(C#N)cc3)C3OC(C)(C)OC3C2O1 (stereo not drawn)	> 75 µM
O=C1NC(=Nc2ccccc2Cl)N/C1=C\c1ccc(Cl)cc1Cl	> 100 µM

Next:
# input Supply reported TGI belonging to this compound: Oc1c(O)c(Cl)c(Cl)c(Cl)c1Cl
# output 31.5 µM

----------
The following compounds are listed with their measured TGI values.
- System: OVCAR-5 ovarian
- assayText: NCI tumour cell line growth inhibition, 48 h

smilesCode	val
N#Cc1c(-c2ccccc2)cc(Nc2ccc(Cl)cc2)n2c1nc1ccccc12	> 50.9 µM

# input Supply reported TGI belonging to this compound: O=C(O)c1ccc(Nc2nc3nn(Cc4ccccc4)cc3c(=O)s2)cc1
# output > 100 µM

# input Supply reported TGI belonging to this compound: O=c1[nH]c(=O)n([C@@H]2O[C@H](CO)[C@@H](O)[C@@H]2F)cc1I
# output > 100 µM

# input Supply reported TGI belonging to this compound: COc1ccc(-c2n[nH]nc2-c2cc(OC)c3c(c2)OCO3)cc1
# output > 100 µM

----------
- System: MDA-MB-231 breast
- assayText: NCI tumour cell line growth inhibition, 48 h; in the data active means GI50 below about 0.43 µM; inactive means the rest
Lab note: assign the record to one of active, inactive

Study these solved cases before continuing.
compound	class
COc1ccccc1C1C(C#N)=C(N)Oc2cc(O)ccc21 (stereo not drawn)	inactive
CCOc1ccc(C(C)=O)cc1NC(=O)c1cccc(-c2nnn(CC)n2)c1	inactive
CCN(CC)c1ccc(/C=N/NC(=O)CSc2nc3ccccc3c(=O)n2Cc2ccc(S(N)(=O)=O)cc2)c(O)c1	inactive
COc1cc(Nc2ncnc(Nc3ccc4c(n3)NC(=O)C(C)(C)O4)n2)cc(OC)c1OC	inactive
COc1cc(-c2nccc3cc4c(cc23)OCO4)cc(OC)c1OC	inactive

# input Check the results log: what was the call for O=C(Oc1ccccc1)C(Br)C(Br)c1ccccc1 (stereo not drawn) ?
# output inactive

# input Check the results log: what was the call for CCOC(=O)C#Cc1c(C(=O)OCC)nnn1[C@@H]1O[C@H](CO)[C@H]2OC3(CCCCC3)O[C@H]21 ?
# output inactive

----------
- Test system: T-47D breast
- assayText: NCI tumour cell line growth inhibition, 48 h
endpointName: TGI

molecule	endpointName	val
CCOC1CCN(C(=O)c2ccccc2)O1 (stereo unspecified)	TGI	> 10 µM
COc1cccc(NC(=O)c2sc3nc4c(cc3c2N)C(O)CCC4)c1 (stereo unspecified)	TGI	> 100 µM
C=CC[C@]1(C2=NC(C)(C)CO2)c2ccccc2-c2ccccc2[C@H]1C(C)=O	TGI	> 69.5 µM
CCn1c(=N)sc2nc3ccccc3n2c1=O	TGI	> 100 µM
Cc1ccc(S(=O)(=O)NC(=O)NC(CCC(N)=O)C(=O)O)cc1 (stereo unspecified)	TGI	> 100 µM

# input Supply reported TGI belonging to this molecule: C/C(=N\NC(N)=S)c1sc(-n2nc(-c3ccccc3)cc2-c2ccccc2)nc1C
# output > 100 µM

----------
- System: SF-268 CNS
- assayText: NCI tumour cell line growth inhibition, 48 h
endpointName: GI50

These recorded examples may help you get a feel for the data.
compound	endpointName	val
COc1cccc(NC(=O)c2sc3nc4c(cc3c2N)C(O)CCC4)c1 (stereo not given)	GI50	496 nM
CCC[CH2][Sn]([CH2]CCC)([O]C(=O)c1cccc(F)c1F)[O]C(=O)c1cccc(F)c1F	GI50	838 nM
O=C(CN(/C=C/C(=O)C(F)(F)F)c1ccccc1)c1ccc(Cl)cc1	GI50	18900 nM
O=C1Nc2ccccc2/C1=C/c1cn(CC(O)Cn2cc(/C=C3\C(=O)Nc4ccccc43)c3ccccc32)c2ccccc12 (stereo not given)	GI50	1750 nM

Next:
# input Supply reported GI50 belonging to this compound: CCOC(=O)C#Cc1c(C(=O)OCC)nnn1[C@@H]1O[C@H](CO)[C@H]2OC3(CCCCC3)O[C@H]21
# output 14300 nM

----------
- System: SNB-75 CNS
- assayText: NCI tumour cell line growth inhibition, 48 h
endpointName: TGI

These recorded examples may help you get a feel for the data.
molecule	testedTarget	val
C[C@H](NC(=O)c1c(C(F)F)nn(C)c1Oc1cccc(C(F)(F)F)c1)c1ccc(C(=O)O)cc1	SNB-75 CNS	> 100 µM
CC1(C)OC2OC(COC(=O)c3ccc(C#N)cc3)C3OC(C)(C)OC3C2O1 (centres undefined)	SNB-75 CNS	> 75 µM
C/C(O)=C(\C=NC(=S)c1ccncc1)C(=O)Nc1ccccc1C	SNB-75 CNS	> 100 µM

Next:
# input Supply reported TGI belonging to this molecule: Cc1ccc(S(=O)(=O)NC(=O)NC(CCC(N)=O)C(=O)O)cc1 (centres undefined)
# output > 100 µM
